measured-on: UniProt P10415
protocol: Binding affinity to recombinant Bcl-2 expressed in Escherichia coli BL21 by fluorescence polarization assay
Reported pEC50 values for a set of compounds
Please note pEC50 is a logarithmic value: minus log10 of concentration in mol/L. Answer with that number alone.

pEC50 measured on `CC[C@H](C)[C@H](NC(=O)[C@H](C)NC(=O)[C@H](CC(C)C)NC(=O)[C@H](CCC(N)=O)NC(=O)[C@H](CCCN=C(N)N)NC(=O)CNC(=O)[C@@H](NC(=O)[C@H](CCC(N)=O)NC(=O)CN)C(C)C)C(=O)N[C@@H](Cc1ccc(-c2ccccc2)cc1)C(=O)NCC(=O)N[C@@H](CC(=O)O)C(=O)N[C@@H](CC(=O)O)C(=O)N[C@H](C(=O)N[C@@H](CC(N)=O)C(=O)N[C@@H](CCCN=C(N)N)C(=O)O)[C@@H](C)CC` = 4.68

Summary for this compound, `CC[C@H](C)[C@H](NC(=O)[C@H](C)NC(=O)[C@H](CC(C)C)NC(=O)[C@H](CCC(N)=O)NC(=O)[C@H](CCCNC(=N)N)NC(=O)CNC(=O)[C@@H](NC(=O)[C@H](CCC(N)=O)NC(=O)CN)C(C)C)C(=O)N[C@H](C(=O)NCC(=O)N[C@@H](CC(=O)O)C(=O)N[C@@H](CC(=O)O)C(=O)N[C@@H](Cc1ccc([N+](=O)[O-])cc1)C(=O)N[C@@H](CC(N)=O)C(=O)N[C@@H](CCCNC(=N)N)C(=O)O)[C@@H](C)CC` : pEC50 is 5.10

Notebook: `CC[C@H](C)[C@H](NC(=O)[C@H](C)NC(=O)[C@H](CC(C)C)NC(=O)[C@H](CCC(N)=O)NC(=O)[C@H](CCCNC(=N)N)NC(=O)CNC(=O)[C@@H](NC(=O)[C@H](CCC(N)=O)NC(=O)CN)C(C)C)C(=O)N[C@H](C(=O)NCC(=O)N[C@@H](CC(=O)O)C(=O)N[C@@H](CC(=O)O)C(=O)N[C@@H](Cc1ccc(Cl)cc1)C(=O)N[C@@H](CC(N)=O)C(=O)N[C@@H](CCCNC(=N)N)C(=O)O)[C@@H](C)CC` , pEC50 read as 5.95

For this compound ( `CC[C@H](C)[C@H](NC(=O)[C@H](C)NC(=O)[C@H](CCSC)NC(=O)[C@H](CCC(N)=O)NC(=O)[C@H](CCCN=C(N)N)NC(=O)CNC(=O)[C@@H](NC(=O)[C@H](CCC(N)=O)NC(=O)CN)C(C)C)C(=O)N[C@H](C(=O)NCC(=O)N[C@@H](CC(=O)O)C(=O)N[C@@H](CC(=O)O)C(=O)N[C@H](C(=O)N[C@@H](CC(N)=O)C(=O)N[C@@H](CCCN=C(N)N)C(=O)O)[C@@H](C)CC)[C@@H](C)CC` ), measured pEC50 is 4.52

Item: `CC[C@H](C)[C@H](NC(=O)[C@H](C)NC(=O)[C@H](Cc1ccc2ccccc2c1)NC(=O)[C@H](CCC(N)=O)NC(=O)[C@H](CCCNC(=N)N)NC(=O)CNC(=O)[C@@H](NC(=O)[C@H](CCC(N)=O)NC(=O)CN)C(C)C)C(=O)N[C@H](C(=O)NCC(=O)N[C@@H](CC(=O)O)C(=O)N[C@@H](CC(=O)O)C(=O)N[C@H](C(=O)N[C@@H](CC(N)=O)C(=O)N[C@@H](CCCNC(=N)N)C(=O)O)[C@@H](C)CC)[C@@H](C)CC` | pEC50: 4.77

----------
As shown below, each of these molecules has a reported pEC50 value.
measured-on: Bcl-2-like protein 1 (Homo sapiens, UniProt Q07817)
Sequence (Q07817 whole entry): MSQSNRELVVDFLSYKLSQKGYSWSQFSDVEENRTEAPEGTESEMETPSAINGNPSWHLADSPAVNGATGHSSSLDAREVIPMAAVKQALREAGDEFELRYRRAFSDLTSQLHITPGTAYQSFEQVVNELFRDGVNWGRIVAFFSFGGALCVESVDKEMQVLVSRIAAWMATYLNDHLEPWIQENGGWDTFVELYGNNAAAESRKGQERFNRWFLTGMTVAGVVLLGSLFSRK
protocol: Binding affinity to recombinant Bcl-XL expressed in Escherichia coli BL21 by fluorescence polarization assay
Friendly reminder that pEC50 comes from taking -log10 of the concentration in mol/L.

Solved cases below.
INSERT INTO measurements (compound_string, endpoint, measured_value) VALUES
  ('CC[C@H](C)[C@H](NC(=O)[C@H](C)NC(=O)[C@H](CC(C)C)NC(=O)[C@H](CCC(N)=O)NC(=O)[C@H](CCCN=C(N)N)NC(=O)CNC(=O)[C@@H](NC(=O)[C@H](CCC(N)=O)NC(=O)CN)C(C)C)C(=O)N[C@H](C(=O)NCC(=O)N[C@@H](CC(=O)O)C(=O)N[C@@H](CC(=O)O)C(=O)N[C@@H](Cc1ccc(O)cc1)C(=O)N[C@@H](CC(N)=O)C(=O)N[C@@H](CCCN=C(N)N)C(=O)O)[C@@H](C)CC', 'pEC50', 6.80),
  ('CC[C@H](C)[C@H](NC(=O)[C@H](C)NC(=O)[C@H](Cc1ccc2ccccc2c1)NC(=O)[C@H](CCC(N)=O)NC(=O)[C@H](CCCNC(=N)N)NC(=O)CNC(=O)[C@@H](NC(=O)[C@H](CCC(N)=O)NC(=O)CN)C(C)C)C(=O)N[C@H](C(=O)NCC(=O)N[C@@H](CC(=O)O)C(=O)N[C@@H](CC(=O)O)C(=O)N[C@H](C(=O)N[C@@H](CC(N)=O)C(=O)N[C@@H](CCCNC(=N)N)C(=O)O)[C@@H](C)CC)[C@@H](C)CC', 'pEC50', 6.90),
  ('CCCC[C@H](NC(=O)[C@H](CC(=O)O)NC(=O)[C@H](CC(=O)O)NC(=O)CNC(=O)[C@@H](NC(=O)[C@@H](NC(=O)[C@H](C)NC(=O)[C@H](CC(C)C)NC(=O)[C@H](CCC(N)=O)NC(=O)[C@H](CCCN=C(N)N)NC(=O)CNC(=O)[C@@H](NC(=O)[C@H](CCC(N)=O)NC(=O)CN)C(C)C)[C@@H](C)CC)[C@@H](C)CC)C(=O)N[C@@H](CC(N)=O)C(=O)N[C@@H](CCCN=C(N)N)C(=O)O', 'pEC50', 6.93),
  ('CC[C@H](C)[C@H](NC(=O)[C@H](C)NC(=O)[C@H](CC(C)C)NC(=O)[C@H](CCC(N)=O)NC(=O)[C@H](CCCN=C(N)N)NC(=O)CNC(=O)[C@H](Cc1ccccc1)NC(=O)[C@H](CCC(N)=O)NC(=O)CN)C(=O)N[C@H](C(=O)NCC(=O)N[C@@H](CC(=O)O)C(=O)N[C@@H](CC(=O)O)C(=O)N[C@H](C(=O)N[C@@H](CC(N)=O)C(=O)N[C@@H](CCCN=C(N)N)C(=O)O)[C@@H](C)CC)[C@@H](C)CC', 'pEC50', 6.52);

Note to self: pEC50 recorded for `CC[C@H](C)[C@H](NC(=O)[C@H](C)NC(=O)[C@H](Cc1cccnc1)NC(=O)[C@H](CCC(N)=O)NC(=O)[C@H](CCCN=C(N)N)NC(=O)CNC(=O)[C@@H](NC(=O)[C@H](CCC(N)=O)NC(=O)CN)C(C)C)C(=O)N[C@H](C(=O)NCC(=O)N[C@@H](CC(=O)O)C(=O)N[C@@H](CC(=O)O)C(=O)N[C@H](C(=O)N[C@@H](CC(N)=O)C(=O)N[C@@H](CCCN=C(N)N)C(=O)O)[C@@H](C)CC)[C@@H](C)CC` was 5.01

----------
Entries and their EC50 values follow.
measured-on: Apoptosis regulator Bcl-2 (Homo sapiens)
Sequence (P10415 whole entry): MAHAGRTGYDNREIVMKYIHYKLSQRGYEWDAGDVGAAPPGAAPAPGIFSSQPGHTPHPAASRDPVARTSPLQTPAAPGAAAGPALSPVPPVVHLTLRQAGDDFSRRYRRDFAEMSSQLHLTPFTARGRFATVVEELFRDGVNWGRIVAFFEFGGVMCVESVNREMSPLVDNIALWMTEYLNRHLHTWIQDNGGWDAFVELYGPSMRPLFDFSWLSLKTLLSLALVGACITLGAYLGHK
protocol: Binding affinity to recombinant Bcl-2 expressed in Escherichia coli BL21 by fluorescence polarization assay
Reply numerically in µM, unit not repeated.

These recorded examples may help you get a feel for the data.
INSERT INTO results (compound_string, unit_string, measured_value) VALUES
  ('CCCC[C@H](NC(=O)[C@H](CCC(N)=O)NC(=O)CN)C(=O)NCC(=O)N[C@@H](CCCN=C(N)N)C(=O)N[C@@H](CCC(N)=O)C(=O)N[C@@H](CC(C)C)C(=O)N[C@@H](C)C(=O)N[C@H](C(=O)N[C@H](C(=O)NCC(=O)N[C@@H](CC(=O)O)C(=O)N[C@@H](CC(=O)O)C(=O)N[C@H](C(=O)N[C@@H](CC(N)=O)C(=O)N[C@@H](CCCN=C(N)N)C(=O)O)[C@@H](C)CC)[C@@H](C)CC)[C@@H](C)CC', 'µM', 0.757),
  ('CC[C@H](C)[C@H](NC(=O)[C@H](C)NC(=O)[C@H](CC(C)C)NC(=O)[C@H](CCC(N)=O)NC(=O)[C@H](CCCNC(=N)N)NC(=O)CNC(=O)[C@@H](NC(=O)[C@H](CCC(N)=O)NC(=O)CN)C(C)C)C(=O)N[C@@H](Cc1c[nH]c2ccccc12)C(=O)NCC(=O)N[C@@H](CC(=O)O)C(=O)N[C@@H](CC(=O)O)C(=O)N[C@H](C(=O)N[C@@H](CC(N)=O)C(=O)N[C@@H](CCCNC(=N)N)C(=O)O)[C@@H](C)CC', 'µM', 2.8);

Lab note: measured EC50 of `CC[C@H](C)[C@H](NC(=O)[C@H](C)NC(=O)[C@H](CC(C)C)NC(=O)[C@H](CCC(N)=O)NC(=O)[C@H](CCCNC(=N)N)NC(=O)CNC(=O)[C@H](Cc1ccc2ccccc2c1)NC(=O)[C@H](CCC(N)=O)NC(=O)CN)C(=O)N[C@H](C(=O)NCC(=O)N[C@@H](CC(=O)O)C(=O)N[C@@H](CC(=O)O)C(=O)N[C@H](C(=O)N[C@@H](CC(N)=O)C(=O)N[C@@H](CCCNC(=N)N)C(=O)O)[C@@H](C)CC)[C@@H](C)CC` was 6.13
